Tested on: Escherichia coli TOP10
MEASUREMENT_NOTES: shrunken log2 fold change of peptide-encoding DNA abundance (4.5 h post-induction vs induction); higher = less antimicrobial activity (less host growth inhibition)
PARTICULARS: time post-induction: 4.5 h; library: site-saturation at positions 5, 18, 19, 20
Measured shrunken log2 fold change values are reported for all entries that follow.

q: Which value of shrunken log2 fold change has been reported for RRIRSRPPRLPRPRPRPSEKPRP in the records?
a: 0.029

q: Fill in the blank: the reported shrunken log2 fold change of RRIRHRPPRLPRPRPRPRTLPRP is ____.
a: -0.137

q: Could you share which shrunken log2 fold change value was measured for RRIRGRPPRLPRPRPRPMCKPRP ?
a: 0.886

q: Could you tell me which shrunken log2 fold change is on file for RRIRGRPPRLPRPRPRPRESPRP ?
a: 1.26

q: # lookup: shrunken log2 fold change of RRIRLRPPRLPRPRPRPVWNPRP
a: 0.2

q: What does the record list as shrunken log2 fold change for RRIRDRPPRLPRPRPRPCKQPRP ?
a: -0.00787

q: I'd like to know its shrunken log2 fold change. The sequence in question is RRIRWRPPRLPRPRPRPWIYPRP
a: 0.0862

q: I have this sequence here, RRIRHRPPRLPRPRPRPARMPRP , and I need its recorded shrunken log2 fold change.
a: -0.0768

q: Look up shrunken log2 fold change for this sequence: RRIRFRPPRLPRPRPRPDADPRP
a: 0.386

###

Test system: Escherichia coli TOP10
MEASUREMENT_NOTES: shrunken log2 fold change of peptide-encoding DNA abundance (4.5 h post-induction vs induction); higher = less antimicrobial activity (less host growth inhibition)
PARTICULARS: time post-induction: 4.5 h; library: site-saturation at positions 5, 18, 19, 20
Decide by shrunken log2 fold change: equal to or exceeding -0.06 means rule met, less means rule not met.

See these solved cases before continuing.
RRIRIRPPRLPRPRPRPVNNPRP : rule not met
RRIRMRPPRLPRPRPRPNTLPRP : rule not met
RRIRCRPPRLPRPRPRPPKWPRP : rule met

q: Evaluate RRIRVRPPRLPRPRPRPYCMPRP : shrunken log2 fold change at minimum -0.06?
a: rule not met

q: Does the sequence RRIRMRPPRLPRPRPRPSRCPRP have recorded shrunken log2 fold change that is -0.06 or more?
a: rule met

q: Quick check, shrunken log2 fold change >= -0.06? RRIRNRPPRLPRPRPRPYLRPRP
a: rule met

q: Say whether RRIRGRPPRLPRPRPRPYFMPRP shows shrunken log2 fold change of -0.06 or more.
a: rule not met

q: Check this sequence for shrunken log2 fold change at or above -0.06: RRIRQRPPRLPRPRPRPQWAPRP
a: rule met

q: Reported shrunken log2 fold change reaches at least -0.06 for RRIRCRPPRLPRPRPRPQPQPRP ?
a: rule met

q: Entry RRIRHRPPRLPRPRPRPLFHPRP : is its shrunken log2 fold change no less than -0.06?
a: rule not met

q: Tell me whether shrunken log2 fold change is at least -0.06 here: RRIRCRPPRLPRPRPRPILFPRP
a: rule not met

q: Decide: shrunken log2 fold change of RRIRQRPPRLPRPRPRPQTCPRP >= -0.06?
a: rule met

q: Form field: shrunken log2 fold change at least -0.06? Entry: RRIRKRPPRLPRPRPRPIDLPRP
a: rule not met

###

Tested on: Escherichia coli TOP10
MEASUREMENT_NOTES: shrunken log2 fold change of peptide-encoding DNA abundance (4.5 h post-induction vs induction); higher = less antimicrobial activity (less host growth inhibition)
PARTICULARS: time post-induction: 4.5 h; library: site-saturation at positions 5, 18, 19, 20
Label scheme for shrunken log2 fold change: lower than -0.2 is Criterion not met, -0.2 and above is Criterion met.

q: Is shrunken log2 fold change at least -0.2? Consider RRIRTRPPRLPRPRPRPIKFPRP
a: Criterion met

q: Check the entry RRIRQRPPRLPRPRPRPIKFPRP : does shrunken log2 fold change equal or exceed -0.2?
a: Criterion not met

###

System: Escherichia coli TOP10
MEASUREMENT_NOTES: shrunken log2 fold change of peptide-encoding DNA abundance (4.5 h post-induction vs induction); higher = less antimicrobial activity (less host growth inhibition)
PARTICULARS: time post-induction: 4.5 h; library: site-saturation at positions 5, 18, 19, 20
Entries and their measured shrunken log2 fold change follow.
Could you respond with only the numeric value?

RRIRKRPPRLPRPRPRPGQIPRP : 0.00502
RRIRNRPPRLPRPRPRPGTFPRP : -0.281
RRIRIRPPRLPRPRPRPKPCPRP : -0.0965

q: Dear colleague, I am looking for the recorded shrunken log2 fold change of the following sequence: RRIRPRPPRLPRPRPRPFPGPRP
a: -0.226

q: Requested field: shrunken log2 fold change. Item: RRIRVRPPRLPRPRPRPTHVPRP
a: 0.0149

###

Here the recorded shrunken log2 fold change is given for each entry.
System: Escherichia coli TOP10
MEASUREMENT_NOTES: shrunken log2 fold change of peptide-encoding DNA abundance (4.5 h post-induction vs induction); higher = less antimicrobial activity (less host growth inhibition)
PARTICULARS: time post-induction: 4.5 h; library: site-saturation at positions 5, 18, 19, 20
Reply with the value as a number alone.

These solved cases illustrate the format of a correct answer.
RRIRDRPPRLPRPRPRPYWMPRP : -0.541
RRIRMRPPRLPRPRPRPRRTPRP : 1.76
RRIRVRPPRLPRPRPRPNSCPRP : -0.394
RRIRHRPPRLPRPRPRPQRVPRP : -0.139
RRIRPRPPRLPRPRPRPQYCPRP : -0.106
RRIRHRPPRLPRPRPRPPAEPRP : 0.0536
RRIRIRPPRLPRPRPRPNMMPRP : -0.298
RRIRERPPRLPRPRPRPEVHPRP : 0.116

q: Reported shrunken log2 fold change, sequence RRIRTRPPRLPRPRPRPFFYPRP : ____
a: -0.345

q: Look up shrunken log2 fold change: RRIRLRPPRLPRPRPRPYVHPRP
a: -0.783

q: What does the record list as shrunken log2 fold change for RRIRGRPPRLPRPRPRPKHSPRP ?
a: 0.209

###

Test system: Escherichia coli TOP10
MEASUREMENT_NOTES: shrunken log2 fold change of peptide-encoding DNA abundance (4.5 h post-induction vs induction); higher = less antimicrobial activity (less host growth inhibition)
PARTICULARS: time post-induction: 4.5 h; library: site-saturation at positions 5, 18, 19, 20
MEASUREMENT_KIND: shrunken log2 fold change
Lab note: record just the number, no unit beside it.

q: So what does the record say about shrunken log2 fold change for RRIRRRPPRLPRPRPRPTPVPRP ?
a: 0.969

q: Entry RRIRWRPPRLPRPRPRPNSNPRP has what shrunken log2 fold change?
a: -0.583

q: Item under review: RRIRLRPPRLPRPRPRPSWMPRP . Reported shrunken log2 fold change?
a: -0.167

q: Looking for the measured shrunken log2 fold change of RRIRQRPPRLPRPRPRPIVLPRP , can you help?
a: -0.132

q: Using the record for RRIRSRPPRLPRPRPRPTDEPRP , report its shrunken log2 fold change.
a: -0.148

q: Please give the measured shrunken log2 fold change for this sequence: RRIRVRPPRLPRPRPRPFFGPRP
a: -0.0414

q: Requested read-out: shrunken log2 fold change. Entry: RRIRIRPPRLPRPRPRPVVFPRP
a: 0.0165

q: Return reported shrunken log2 fold change; argument: RRIRGRPPRLPRPRPRPFNGPRP
a: 0.0458

q: Return reported shrunken log2 fold change; argument: RRIRVRPPRLPRPRPRPSWGPRP
a: 0.0232

q: What measured shrunken log2 fold change goes with RRIRHRPPRLPRPRPRPMCEPRP ?
a: -0.293

q: Given the sequence RRIRDRPPRLPRPRPRPVQCPRP , what is its reported shrunken log2 fold change?
a: -0.242

###

Reported shrunken log2 fold change values for a set of sequences
System: Escherichia coli TOP10;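 further: peptides expressed intracellularly from a pBAD plasmid library in pooled LB shake-flask culture, induced with 0.3% L-arabinose, DNA abundance read by NGS, three biological replicates, DESeq2 with apeglm shrinkage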
MEASUREMENT_NOTES: shrunken log2 fold change of peptide-encoding DNA abundance (4.5 h post-induction vs induction); higher = less antimicrobial activity (less host growth inhibition)
PARTICULARS: time post-induction: 4.5 h; library: site-saturation at positions 5, 18, 19, 20
Reply: number alone, nothing else.

RRIRERPPRLPRPRPRPCIWPRP : -0.0915
RRIRIRPPRLPRPRPRPNKFPRP : -0.992
RRIRIRPPRLPRPRPRPKPPPRP : 0.269
RRIRMRPPRLPRPRPRPGQKPRP : 0.142
RRIRVRPPRLPRPRPRPYRAPRP : -0.201

q: Would you mind telling me what shrunken log2 fold change value was observed for RRIRMRPPRLPRPRPRPMYTPRP ?
a: -0.71

q: Param item = RRIRVRPPRLPRPRPRPVLRPRP ; retrieve measured shrunken log2 fold change.
a: 0.187

q: I am curious: what shrunken log2 fold change value has been reported for RRIRMRPPRLPRPRPRPFKMPRP ?
a: 0.0516

q: Item under review: RRIRLRPPRLPRPRPRPMFWPRP . Reported shrunken log2 fold change?
a: 0.145

q: I have this sequence here, RRIRIRPPRLPRPRPRPHLMPRP , and I need its recorded shrunken log2 fold change.
a: -1.31

q: Tell me the measured shrunken log2 fold change of RRIRKRPPRLPRPRPRPINQPRP , please.
a: -0.166

Data credit: the supplement of paper PMC9112550
